# Measured target: human ABCG2 (Homo sapiens, UniProt Q9UNQ0)
# Construct: P. Borst and Dr. A. Schinkel (Netherlands Cancer Institute); host or cells: MDCK-II (MDCK-ABCG2)
# Sequence (Q9UNQ0 1-655): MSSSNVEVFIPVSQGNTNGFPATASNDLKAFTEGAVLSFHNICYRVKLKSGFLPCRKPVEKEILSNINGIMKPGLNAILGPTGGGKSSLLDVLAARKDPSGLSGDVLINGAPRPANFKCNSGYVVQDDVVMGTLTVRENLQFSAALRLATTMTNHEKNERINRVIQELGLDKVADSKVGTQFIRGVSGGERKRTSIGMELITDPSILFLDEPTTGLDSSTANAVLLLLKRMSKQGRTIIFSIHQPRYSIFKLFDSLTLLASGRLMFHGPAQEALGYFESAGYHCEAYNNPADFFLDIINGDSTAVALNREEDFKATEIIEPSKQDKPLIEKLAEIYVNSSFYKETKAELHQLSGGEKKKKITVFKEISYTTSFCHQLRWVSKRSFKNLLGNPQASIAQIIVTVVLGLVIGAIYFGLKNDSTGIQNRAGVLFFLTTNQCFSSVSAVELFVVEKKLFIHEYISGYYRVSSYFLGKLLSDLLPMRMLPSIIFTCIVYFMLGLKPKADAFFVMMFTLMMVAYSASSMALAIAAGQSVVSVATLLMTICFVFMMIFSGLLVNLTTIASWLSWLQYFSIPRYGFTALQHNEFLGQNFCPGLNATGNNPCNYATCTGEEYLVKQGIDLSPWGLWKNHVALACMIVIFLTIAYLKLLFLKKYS
# Protocol details: In vitro uptake assay in MDCK-ABCG2 cells: tariquidar inhibition of ABCG2-mediated transport
# Assay type: cell-based
# Experimental conditions: IC50 of tariquidar for inhibition of ABCG2 transport, [^3H]elacridar (1 nmol/L) as substrate, 120 min uptake
Readout: IC50 (nM)
Give bare numbers, in nM.

COc1cc2c(cc1OC)CN(CCc1ccc(NC(=O)c3cc(OC)c(OC)cc3NC(=O)c3cnc4ccccc4c3)cc1)CC2 has a reported IC50 of 813

Ref: paper PMC4979595
